- Assay Method Text: Determining the solubility (saturated solution in McIlvaine buffer pH 7.4, UV spectroscopy)
- Assay type: physicochemical
- Measurement Setup: pH 7.4, aqueous buffer, thermodynamic from solid, shaken 2 hours, 0.75 mg solid in 0.75 ml
Kindly state solubility at 2 h for each of the entries shown.
Kindly answer with a numeric value in µg/mL, unit omitted.

[Q] What does the data say about its solubility at 2 h? Entry: CCN(CC)C1CCN(Cc2cc(C(C)(C)C)cc(NC(=O)c3cc4cccc(CN5CCN(C(=O)[C@@H]6CCCN6C)CC5)c4n3C)c2OC)C1 (stereo partly drawn) [9(4)]
[A] 690

[Q] Requested read-out: solubility at 2 h. Entry: COc1c(NC(=O)c2cc3cccc(CN4CCN(C(=O)[C@@H]5CCCN5C)CC4)c3n2C)cc(CC(C)C)cc1NS(C)(=O)=O [8(2)]
[A] 120

[Q] Given the compound COc1c(CN2CCCC(N(C)C)C2)cc(C(C)(C)C)cc1NC(=O)c1cc2cccc(CN3CCN(C(=O)[C@@H]4CCCN4C)CC3)c2n1C (stereo partly drawn) [9(3)] , what is its reported solubility at 2 h?
[A] 700

[Q] Given the compound COc1c(NC(=O)c2cc3cccc(CN4CCN(C(=O)CN5CCNCC5)CC4)c3n2C)cc(C(C)(C)C)cc1NS(C)(=O)=O [Example 7] , what is its reported solubility at 2 h?
[A] 110

[Q] Which value of solubility at 2 h has been reported for COc1c(NC(=O)c2cc3cccc(CN4CCCN(C(=O)[C@H]5CCCN5C)CC4)c3n2C)cc(C(C)(C)C)cc1NS(C)(=O)=O [1(21)] in the records?
[A] 45

[Q] solubility at 2 h lookup needed for COc1c(NC(=O)c2cc3cccc(CN4CCN(C(=O)[C@H]5C[C@@H](OC)CN5C)CC4)c3n2C)cc(C(C)(C)C)cc1NS(C)(=O)=O [1(9)] , thanks.
[A] 440

---

Hi there, I'd appreciate the recorded IC50 for every entry that follows.
- Target Of Assay: cytochrome P450 2C9 (Homo sapiens, UniProt P11712)
- Sequence (P11712 whole entry): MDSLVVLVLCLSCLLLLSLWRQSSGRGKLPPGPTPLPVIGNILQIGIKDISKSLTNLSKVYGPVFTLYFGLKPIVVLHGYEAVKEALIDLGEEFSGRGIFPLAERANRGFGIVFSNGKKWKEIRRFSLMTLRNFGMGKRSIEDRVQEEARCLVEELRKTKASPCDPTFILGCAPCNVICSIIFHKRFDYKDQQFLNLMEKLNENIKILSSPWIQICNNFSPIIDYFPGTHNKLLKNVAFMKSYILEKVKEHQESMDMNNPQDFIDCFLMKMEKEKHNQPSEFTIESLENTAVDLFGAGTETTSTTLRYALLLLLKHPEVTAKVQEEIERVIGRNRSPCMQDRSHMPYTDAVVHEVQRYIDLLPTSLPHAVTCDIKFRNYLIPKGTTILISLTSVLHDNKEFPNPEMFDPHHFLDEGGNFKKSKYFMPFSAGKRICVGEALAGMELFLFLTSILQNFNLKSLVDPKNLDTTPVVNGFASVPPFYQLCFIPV
- Assay Method Text: Determining the cyp2C9 activity (O-demethylation of [O-methyl-14C]-naproxen)
- Measurement Setup: human recombinant cytochrome P450 2C9; 37° C.; <0.4 μM when inhibition >50% at lowest concentration; read-out: CYP 2C9 IC50
Expressed in µM, but write only the number.

[Q] Consider the molecule shown here: COc1c(NC(=O)c2cc3cccc(CC4CCN(C(=O)[C@H]5CCCN5C)CC4)c3n2C)cc(C(C)(C)C)cc1NS(C)(=O)=O [1(6)] What is its recorded IC50?
[A] 1.43

[Q] What does the data say about its IC50? Entry: COc1c(NC(=O)c2cc3cccc(CN4CCCN(C(=O)[C@H]5CCCN5C)CC4)c3n2C)cc(C(C)(C)C)cc1NS(C)(=O)=O [1(21)]
[A] 4.02

[Q] So what does the record say about IC50 for COc1c(NC(=O)c2cc3cccc(CN4CCC(C(=O)N5CC[C@H](N(C)C)C5)CC4)c3n2C)cc(C(C)(C)C)cc1NS(C)(=O)=O [1(23)] ?
[A] 1.77

---

- Target Of Assay: cytochrome P450 2C9 (Homo sapiens)
- Assay Method Text: Determining the cyp2C9 activity (O-demethylation of [O-methyl-14C]-naproxen)
- Measurement Setup: human recombinant cytochrome P450 2C9; 37° C.; <0.4 μM when inhibition >50% at lowest concentration; read-out: CYP 2C9 IC50
Could you please report measured pIC50 for the items listed next?
# reply with the number alone; pIC50 is -log10 of concentration in mol/L

[Q] Dear colleague, I am looking for the recorded pIC50 of the following compound: `COc1c(NC(=O)c2cc3cccc(CN4CCN(C(=O)CN5CCNCC5)CC4)c3n2C)cc(C(C)(C)C)cc1NS(C)(=O)=O`
[A] 5.27

[Q] Would you mind telling me what pIC50 value was observed for `COc1c(CS(C)(=O)=O)cc(C(C)(C)C)cc1NC(=O)c1cc2cccc(CN3CCN(C(=O)[C@@H]4CCCN4C)CC3)c2n1C` ?
[A] 5.63

[Q] # lookup: pIC50 of CCC(C)c1cc(NC(=O)c2cc3cccc(CN4CCN(C(=O)[C@@H]5CCCN5C)CC4)c3n2C)c(OC)c(NS(C)(=O)=O)c1 (stereo partly shown)
[A] 5.58

[Q] Given the compound `COc1c(NC(=O)c2cc3cccc(CN4CCC(C(=O)N5CC[C@@H](N(C)C)C5)CC4)c3n2C)cc(C(C)(C)C)cc1NS(C)(=O)=O` , what is its reported pIC50?
[A] 5.61

[Q] I am curious: what pIC50 value has been reported for `COc1c(NC(=O)c2cc3cccc(CN4CCN(C(=O)N5CC[C@H](N(C)C)C5)CC4)c3n2C)cc(C(C)(C)C)cc1NS(C)(=O)=O` ?
[A] 6.06

[Q] Reported pIC50 for `COc1c(NC(=O)c2cc3cccc(CN4CCN(C(=O)[C@@H]5CCCN5C)CC4)c3n2C)cc(C(C)(C)C)cc1NS(=O)(=O)C1CC1` : what is it?
[A] 6.17

[Q] Quick one: pIC50 of `COc1c(NC(=O)c2cc3cccc(CN4CCCN(C(=O)[C@@H]5CCN(C)C5)CC4)c3n2C)cc(C(C)(C)C)cc1NS(C)(=O)=O` ?
[A] 6.00

[Q] I am curious: what pIC50 value has been reported for `COc1c(NC(=O)c2cc3cccc(CN4CCN(C(=O)CN5CC[C@@H](N(C)C)C5)CC4)c3n2C)cc(C(C)(C)C)cc1NS(C)(=O)=O` ?
[A] 6.15

[Q] I would be grateful if you could share the reported pIC50 for `CCCC(=O)Nc1cc(C(C)(C)C)cc(NC(=O)c2cc3cccc(CN4CCN(C(=O)[C@@H]5CCCN5C)CC4)c3n2C)c1OC` .
[A] 6.02

[Q] Need pIC50 of `CCN(CC)C1CCN(Cc2cc(C(C)(C)C)cc(NC(=O)c3cc4cccc(CN5CCN(C(=O)[C@@H]6CCCN6C)CC5)c4n3C)c2OC)CC1` , thanks.
[A] 4.98

[Q] For the compound COc1c(NC(=O)c2cc3cccc(CC4CCCN(C(=O)C5CCN(C)CC5)CC4)c3n2C)cc(C(C)(C)C)cc1NS(C)(=O)=O (stereo not shown) , what pIC50 is on record?
[A] 5.44

[Q] Item under review: `COc1c(NC(=O)c2cc3cccc(CN4CCN(C(=O)[C@@H]5CCCN5C)CC4)c3n2C)cc(C(C)(C)C)cc1NC(=O)C1CC1` . Reported pIC50?
[A] 6.19

[Q] Quick check: pIC50 of `COc1c(NC(=O)c2cc3cccc(CN4CCN(C(=O)[C@@H]5CCCN5C)CC4)c3n2C)cc(C(C)C)cc1NS(C)(=O)=O` ?
[A] 4.98
